I'd be grateful if you could share measured IC50 for these entries.
target: recombinant DYRK1A kinase (Homo sapiens (Human), UniProt Q13627); test: DYRK1A kinase assay (Ser/Thr 18 peptide Z-lyte, FRET); assay type: biochemical; details: 30 μM ATP, one hour at room temperature, read-out: EC50 (μM) (IC50 per method)
Give bare numbers, in µM.

molecule: O=C1CCCc2cccc(c2)-c2cccc3[nH]c(nc23)-c2n[nH]c3ccc(cc23)-c2cncc(c2)N1 [Compound 71]
value.kind: IC50
unit.string: µM
test.result: 0.014

Provide the reported IC50 of each entry below, same order.
1. c1cc2cc(c1)-c1cccc3[nH]c(nc13)-c1n[nH]c3ccc(cc13)-c1cncc(c1)CNC2 [Compound 10]
2. O=C1CCc2cccc(c2)-c2cccc3[nH]c(nc23)-c2n[nH]c3ccc(cc23)-c2cncc(c2)N1 [Compound 1]
3. O=C1CCc2cccc(c2)-c2ccnc3[nH]c(nc23)-c2n[nH]c3ccc(cc23)-c2cncc(c2)N1 [Compound 4]
4. c1cc2cc(c1)-c1cncc3[nH]c(nc13)-c1n[nH]c3ccc(cc13)-c1cncc(c1)CNC2 [Compound 8]

Response given:
[0.018, 0.266, 0.204, 0.003]

Provide the reported IC50 of each entry below, same order.
1. CN1CCCn2cc(nn2)-c2cncc3[nH]c(nc23)-c2n[nH]c3ccc(cc23)-c2cncc(c2)C1 [Compound 45]
2. O=C1CCc2cccc(c2)-c2cncc3[nH]c(nc23)-c2n[nH]c3ccc(cc23)-c2cncc(c2)N1 [Compound 3]

Response given:
1: 0.004; 2: 0.01

Provide the reported IC50 of each entry below, same order.
1. CN1Cc2cncc(c2)-c2ccc3[nH]nc(c3c2)-c2nc3c(cccc3[nH]2)-c2cccc(c2)C1 [Compound 22]
2. O=C1NC2CCC(CC2)NCc2cncc(c2)-c2ccc3[nH]nc(c3c2)-c2nc3c1cccc3[nH]2 [Compound 64]
3. CN1Cc2cccc(c2)-c2cccc3[nH]c(nc23)-c2n[nH]c3ccc(cc23)-c2cnn(C)c2C1 [Compound 29]
4. O=C1COc2cccc(c2)-c2cncc3[nH]c(nc23)-c2n[nH]c3ccc(cc23)-c2cncc(c2)N1 [Compound 38]
5. c1cc2cc(c1)-c1cccc3[nH]c(nc13)-c1n[nH]c3ccc(cc13)-c1cncc(n1)NCCO2 [Compound 109]
6. O=C1CCc2cccc(c2)-c2cccc3[nH]c(nc23)-c2n[nH]c3cnc(cc23)-c2cncc(c2)N1 [Compound 6]
7. O=C1CCc2cccc(c2)-c2cccc3[nH]c(nc23)-c2n[nH]c3ncc(cc23)-c2cncc(c2)N1 [Compound 5]

Response given:
1: 0.068; 2: 0.448; 3: 0.412; 4: 0.005; 5: 0.096; 6: 0.096; 7: 0.709
